Numbers sourced from patent US20250026813A1.

Target: SARS-CoV-2 spike protein receptor binding domain (RBD) (SARS-CoV-2, UniProt P0DTC2 319-541)
Property Measured: Kd (nM)
Report only the number, with the unit nM understood.

IMPI-029 (antibody, V domains shown) VH: EVQLVESGGGLIQPGGSLRLSCAASGVTVSSNYMNWVRQAPGKGLEWVSVIYSGGSTYYADSVKGRFTISRDNSKNTLFLQMNSLRAEDSAVYYCARDLGPYGVDVWGQGTTVTVSS VL: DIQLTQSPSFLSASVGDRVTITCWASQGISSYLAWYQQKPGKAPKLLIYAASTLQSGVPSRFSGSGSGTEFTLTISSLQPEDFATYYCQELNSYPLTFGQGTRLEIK    0.446

Field: next binder
Asked: Report Kd for IMPI-005 (antibody, V domains shown) VH: EVQLVESGGGLIQPGGSLRLSCAASGFTVSSNYMNWVRQAPGKGLEWVSVIYSGGSTYYADSVKGRFTISRDNSKNTLFLQMNSLRAEDSAVYYCARDLGPYGVDVWGQGTTVTVSS VL: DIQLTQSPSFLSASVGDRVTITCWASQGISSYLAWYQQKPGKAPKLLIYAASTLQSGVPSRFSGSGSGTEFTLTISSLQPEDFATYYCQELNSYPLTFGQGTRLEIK please.
Given back: 24.9
